target: CFTR (Homo sapiens, UniProt P13569, DEL508-508); construct: endogenous in cells; host or cells: primary human bronchial epithelial cells from CF subjects (F508del/MF-HBE), differentiated at air-liquid interface; assay: HBE assay: Ussing chamber assay of CFTR-mediated short-circuit currents; format: cell-based; conditions: Table 11; read-out: HBE EC50
Sequence (P13569 with tags, fused parts or gaps DEL508-508): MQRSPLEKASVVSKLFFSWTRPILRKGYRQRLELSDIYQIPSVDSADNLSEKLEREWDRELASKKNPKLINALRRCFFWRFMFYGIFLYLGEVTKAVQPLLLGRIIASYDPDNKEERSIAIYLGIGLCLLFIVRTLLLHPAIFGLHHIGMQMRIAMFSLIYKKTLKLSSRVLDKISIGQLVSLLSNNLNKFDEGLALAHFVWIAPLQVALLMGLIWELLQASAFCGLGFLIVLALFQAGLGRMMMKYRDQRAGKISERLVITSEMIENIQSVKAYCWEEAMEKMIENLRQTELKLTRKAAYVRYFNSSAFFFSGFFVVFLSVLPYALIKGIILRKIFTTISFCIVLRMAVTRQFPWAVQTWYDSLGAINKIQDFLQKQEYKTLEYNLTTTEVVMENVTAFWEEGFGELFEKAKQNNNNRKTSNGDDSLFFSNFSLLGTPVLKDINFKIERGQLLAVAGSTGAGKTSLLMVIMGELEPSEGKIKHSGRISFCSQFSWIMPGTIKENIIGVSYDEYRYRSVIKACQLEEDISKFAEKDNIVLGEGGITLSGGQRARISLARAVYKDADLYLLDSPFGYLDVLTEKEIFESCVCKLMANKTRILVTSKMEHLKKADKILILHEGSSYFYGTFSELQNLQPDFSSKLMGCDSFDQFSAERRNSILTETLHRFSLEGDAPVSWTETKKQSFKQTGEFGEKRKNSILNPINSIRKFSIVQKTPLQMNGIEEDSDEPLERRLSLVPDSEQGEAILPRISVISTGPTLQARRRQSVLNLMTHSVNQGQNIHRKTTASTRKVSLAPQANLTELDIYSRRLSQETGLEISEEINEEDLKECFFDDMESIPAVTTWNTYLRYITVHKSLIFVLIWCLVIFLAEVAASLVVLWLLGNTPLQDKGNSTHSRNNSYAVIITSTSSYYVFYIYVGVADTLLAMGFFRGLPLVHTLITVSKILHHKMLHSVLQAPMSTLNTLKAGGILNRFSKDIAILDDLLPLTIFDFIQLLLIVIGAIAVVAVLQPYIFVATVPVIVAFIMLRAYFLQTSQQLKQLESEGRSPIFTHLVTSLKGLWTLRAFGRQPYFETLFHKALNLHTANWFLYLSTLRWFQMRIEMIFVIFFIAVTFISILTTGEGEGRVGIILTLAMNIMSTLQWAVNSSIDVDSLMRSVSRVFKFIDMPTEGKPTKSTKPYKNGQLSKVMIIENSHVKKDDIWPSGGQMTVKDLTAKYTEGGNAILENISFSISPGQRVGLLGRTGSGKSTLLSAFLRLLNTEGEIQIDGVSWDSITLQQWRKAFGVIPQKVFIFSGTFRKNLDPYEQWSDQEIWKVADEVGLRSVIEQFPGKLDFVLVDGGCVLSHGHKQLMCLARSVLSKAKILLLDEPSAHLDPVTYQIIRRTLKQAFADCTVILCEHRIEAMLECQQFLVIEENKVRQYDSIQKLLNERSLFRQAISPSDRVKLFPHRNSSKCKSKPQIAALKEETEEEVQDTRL
Reported EC50 values for the following molecules.

molecule | EC50
Cc1cccc(C)c1-c1cc2nc(n1)NS(=O)(=O)c1cccc(c1)C(=O)N(CC1CCCOC1)[C@H](CC(C)(C)C)CO2 (stereo partly drawn) [Compound 818] | < 1000 nM

Data request: Please give the measured EC50 for this molecule: COC1CCN(c2cccc(CN3C(=O)c4cccc(c4)S(=O)(=O)Nc4nc(cc(-c5c(C)cccc5C)n4)OC[C@H]3CC(C)(C)C)n2)CC1
Data returned: < 1000 nM

Data request: Need EC50 of Cc1cccc(C)c1-c1cc2nc(n1)NS(=O)(=O)c1cccc(c1)C(=O)N(Cc1ncccc1N(C)CC(C)(C)C)[C@H](CC(C)(C)C)CO2 , thanks.
Data returned: < 1000 nM

Data request: Look up EC50 for this molecule: Cc1cccc(C)c1-c1cc2nc(n1)NS(=O)(=O)c1cccc(c1)C(=O)N(Cc1cnc(C3CCOCC3)cn1)[C@H](CC(C)(C)C)CO2
Data returned: 1000 to 3000 nM

Data request: Which EC50 value belongs to Cc1ccnc(CN2C(=O)c3cccc(c3)S(=O)(=O)Nc3nc(cc(-c4c(C)cccc4C)n3)OC[C@H]2CC(C)(C)C)c1 ?
Data returned: < 1000 nM

Data request: State the recorded EC50 for this entry: Cc1cccc(C)c1-c1cc2nc(n1)NS(=O)(=O)c1cccc(c1)C(=O)N(Cc1cccc(C(C)C)n1)[C@H](CC(C)(C)C)CO2
Data returned: < 1000 nM

----------
Target: CFTR (Homo sapiens, UniProt P13569, DEL508-508)
Construct: endogenous in cells; host or cells: primary human bronchial epithelial cells from CF subjects (F508del/MF-HBE), differentiated at air-liquid interface
Test: HBE assay: Ussing chamber assay of CFTR-mediated short-circuit currents
Format: cell-based
Details: HBE assay; read-out: HBE EC50
Experimental: 1. Ussing Chamber Assay of CFTR-Mediated Short-Circuit Currents […] To isolate the CFTR-mediated short-circuit (ISC) current, F508del/MF-HBE grown on Costar® Snapwell™ cell culture inserts were mounted in an Ussing chamber and the transepithelial ISC was measured under voltage-clamp recording conditions (Vhold=0 mV) at 37° C. […] The CFTR-mediated ISC (μA/cm^2) for each condition was determined from the peak forskolin response to the steady-state current following inhibition. […]
Below, each of the compounds is paired with its reported EC50 value.

Here's what some known entries look like.
compound | result
Cc1cccc(C)c1-c1cc2nc(n1)NS(=O)(=O)c1cccc(c1)C(=O)N(Cc1cccc(N3C4CCC3CC4)n1)[C@H](CC(C)(C)C)CO2 | < 1 µM
CCC(C)Oc1cnc(CN2C(=O)c3cccc(c3)S(=O)(=O)Nc3nc(cc(-c4c(C)cccc4C)n3)OC[C@H]2CC(C)(C)C)nc1 (stereo partly drawn) [Compound 1374] | < 1 µM

Data request: Entry Cc1cccc(C)c1-c1cc2nc(n1)NS(=O)(=O)c1cccc(c1)C(=O)N(Cc1ncc(N3CCC(F)(F)C3)cn1)[C@H](CC(C)(C)C)CO2 : reported EC50 = ?
Data returned: < 1 µM
